# TEST TARGET: T1, Unprocessed hMPV PreF trimer (human metapneumovirus, strain B2)
# T1 construct: also called Unprocessed hMPV WT PreF trimer; unprocessed hMPV PreF trimeric antigen
# TEST DESCRIPTION: BLI, mAb on anti-human Fc sensor

| BINDER | Octet binding response / nm |
| --- | --- |
| M3B04 (antibody, V domains shown, IgG) VH: QVQLQESGPGLVKPSETVSLTCTVSGGSISSNNWWSWVRQSPGKGLEWIGEIYHSGSTNFNPSLKSRVTISVDKSKNHFSLKLGSLTAADTAVYYCARRPNDYGDYSYYYYYYMDVWGKGTTVTVSS VL: EIVLTQSPATLSLSPGESATLSCRASQSINRNLAWYQQKPGQAPRLLIYDASNRATGIPARFSGSGSGTDFTLTISSLEPEDFAVYYCQQRSHWVTFGQGTRLEIK | 0.177 |
| M3A03 (antibody, V domains shown, IgG) VH: QVQLVQSGAEVKKPGASVKVSCKASAYTFTSYGITWVRQAPGQGLEWMGWISAYRGNTKYAQKLQGRVTMTTDTSTSTASMELRSLRSDDTAVYYCARTSYYDSSYYPIDYWGQGTLVTVSS VL: SYVLTQPPSVSVAPGQTARITCGGNNIGSKSVQWYQQKPGQAPVLVVYDDSDRPSGIPERFSGSNSGNTATLTISRVEAGDEADYYCQVWDSSGDRVVFGGGTKLTVL | 0.181 |
| M3A01 (antibody, V domains shown, IgG) VH: EVQLVESGGGLVKPGGSLRLSCSVSAFSISGYNMHWVRQAPGKGLEWVSSITGGSNYINYADSVKGRFTISRDNAQNSLYLQMKSLRAEDTAVYYCARETQPSPGSFDSWGQGTLVTVSS VL: QSVLTQPPSVSGAPGQRVTISCTGSSSNIGAGYDVNWYQQLPGTAPKLLIYGNYNRPSGVPDRFSASKSGTSASLAITGLQAEDEADYWCQSYDTSLSGWIFGGGTKLTVL | 0.251 |

The measurements presented in this section are drawn from patent US20240327502A1.
